Target: T1, human single-chain CD1a-β2M recombinant protein (Human B2M-CD1a ECD-Avi-His6) (human)
T1 construct: Biotinylated in the HTRF, phage selection and Gyrolab assays; also called human CD1a; CD1a protein
T1 sequence (chain, as listed by the source limits assumed): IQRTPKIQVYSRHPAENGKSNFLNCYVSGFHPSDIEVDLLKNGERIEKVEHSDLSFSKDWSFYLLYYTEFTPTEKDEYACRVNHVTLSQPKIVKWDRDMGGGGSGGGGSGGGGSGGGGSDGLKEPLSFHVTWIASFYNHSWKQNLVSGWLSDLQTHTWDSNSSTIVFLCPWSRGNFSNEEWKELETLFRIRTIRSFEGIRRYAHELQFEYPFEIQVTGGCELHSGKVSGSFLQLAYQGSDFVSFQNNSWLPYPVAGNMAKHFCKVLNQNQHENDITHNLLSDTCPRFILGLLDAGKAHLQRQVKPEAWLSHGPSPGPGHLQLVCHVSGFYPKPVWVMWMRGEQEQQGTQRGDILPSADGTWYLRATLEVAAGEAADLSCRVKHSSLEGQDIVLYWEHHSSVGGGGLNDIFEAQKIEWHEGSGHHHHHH
Test: SPR (Biacore), IgG; antigen taken as human CD1a
measurementKind: pKd
Expect pKd as a plain number equal to -log10 of the molar concentration.

binder: Ab624 (antibody, human IgG1, kappa, V domains shown, Optimized variant of Ab138; human IgG1 effector null / kappa; HC with or without terminal lysine) VH: EVQLVESGGGLVQPGGSLRLSCAASGFDFTDHYMHWVRQAPGKGLEWVAHTRDKAGGYTTESNPAVKGRFTISRDNAKNSLYLQMNSLRAEDTAVYYCARETTRIPTGWFAYWGQGTLVTVSS VL: DIQMTQSPSSLSASVGDRVTITCLASEDIYFDLAWYQQKPGKAPKLLIYGGDRLKEGVPSRFSGSGSGTDYTLTISSLQPEDFATYYCQQSYSYPYTFGQGTKLEIKR
measurementKind: pKd
valueReported: 8.89
--
binder: Ab585 (antibody, human IgG1, kappa, V domains shown, Optimized variant of Ab138; human IgG1 effector null / kappa; HC with or without terminal lysine) VH: EVQLVESGGGLVQPGGSLRLSCAASGFTFTDHYMHWVRQAPGKGLEWVGHISGSAGGYTTESNPAVKGRFTISRDNAKNSLYLQMNSLRAEDTAVYYCARETTRIPTGWFAYWGQGTLVTVSS VL: DIQMTQSPSSLSASVGDRVTITCLASEDIYFDLAWYQQKPGKAPKLLIYGASTPKDGVPSRFSGSGSGTDYTLTISSLQPEDFATYYCQQSEKYPYTFGQGTKLEIKR
measurementKind: pKd
valueReported: 9.49

The record that follows has no pKd shown yet.
Quick one: pKd for Ab504 (antibody, human IgG1, kappa, V domains shown, Optimized variant of Ab138; human IgG1 effector null / kappa; HC with or without terminal lysine) VH: EVQLVESGGGLVQPGGSLRLSCAASGFTFTDHYMHWVRQAPGKGLEWVAFIRNKAGGYTTESNPAVKGRFTISRDNAKNSLYLQMNSLRAEDTAVYYCARETTGIPTGWFAYWGQGTLVTVSS VL: DIQMTQSPSSLSASVGDRVTITCLASEDIYFDLAWYQQKPGKAPKLLIYGGDRLKDGVPSRFSGSGSGTDYTLTISSLQPEDFATYYCQQSESYPYTFGQGTKLEIKR ? 9.28
